# reported growth inhibition; entries follow
Test Name: NCI Yeast Anticancer Drug Screen. Data for the wt2 strain (AID 169);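 note: 0% = growth of vehicle-treated yeast cultures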
Run Parameters: S. cerevisiae wt2 strain growth inhibition; at 3.7 µM; stronger effect = higher value
The panel holds about 79,000 compounds, 15% with a hit somewhere; the sample as a whole holds those more often.

Molecule: CCOC1Oc2ccccc2-c2nc(N)ncc21 (stereo unspecified)
growth inhibition / %: -7
--
Molecule: N#CNC(N)=Nc1cc2ccccc2c2ccccc12
growth inhibition / %: 12
--
Molecule: O=P(NC1CCCCC1)(OCc1ccccc1)OCc1ccccc1
growth inhibition / %: 2
--
Molecule: Cc1cc(C(C)(C)CC(C)(C)C)ccc1O
growth inhibition / %: -34
--
Molecule: CC(C)(C)CC(C)(C)c1cc(O)c(O)c(CN2CCCCC2)c1
growth inhibition / %: -1
--
Molecule: O=C1OC(OC/C(Br)=C(\Br)COC2OC(=O)C(Cl)=C2Cl)C(Cl)=C1Cl (stereo unspecified)
growth inhibition / %: -2

* * *

# reported growth inhibition; entries follow
Test Name: NCI Yeast Anticancer Drug Screen. Data for the bub3 strain (AID 167)
Run Parameters: S. cerevisiae bub3 mutant strain, at 3.7 µM, stronger effect = higher value
Compounds without any hit were thinned out: in the full panel of roughly 79,000, 15% have a hit.

Molecule: O=C1OC(C2=CC(=O)c3ccccc3C2=O)C(Cl)=C1Cl (stereo unspecified)
growth inhibition [%]: -1
--
Molecule: O=c1ccc2ccccc2c2ccccc12
growth inhibition [%]: 47
--
Molecule: CCCCCCCCCCCCCCCCCC(=O)NCCCN(C)C
growth inhibition [%]: 6
--
Molecule: Cc1cc(N(CCOS(C)(=O)=O)CCOS(C)(=O)=O)ccc1C=Nc1ccc(-c2csc(-c3ccccc3)n2)c(Cl)c1
growth inhibition [%]: 20
--
Molecule: O=C(C[n+]1ccc2ccccc2c1)c1ccc2ccccc2c1
growth inhibition [%]: -12
--
Molecule: O=C(O)c1ccccc1/C=N/N=C1c2ccccc2-c2ccccc21
growth inhibition [%]: -1
--
Molecule: O=C(NNc1ccccc1)C(O)C(O)C(O)C(O)C(O)CO (stereo unspecified)
growth inhibition [%]: 0
--
Molecule: C[Si](C)(C)/C=C/CCNC(C#N)c1ccccc1 (stereo unspecified)
growth inhibition [%]: 7
--
Molecule: CC(C)CCCC(C)C1CCC2C3CCC4=CC(=O)/C(=C\O)CC4(C)C3CCC12C (stereo unspecified)
growth inhibition [%]: -1
--
Molecule: O=C1C=C(c2ccccc2)OC1(c1ccccc1)N1CCOCC1 (stereo unspecified)
growth inhibition [%]: -1
--
Molecule: Cc1cccc[n+]1C1CCc2c(ccc3ccccc23)C1=O (stereo unspecified)
growth inhibition [%]: 0

* * *

Test Name: NCI Yeast Anticancer Drug Screen. Data for the rad50EPP+ strain (AID 151);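 note: 0% = growth of vehicle-treated control cultures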
Run Parameters: S. cerevisiae rad50 mutant strain, at 3.7 µM, stronger effect = higher value
This is part of a sample that, as a whole, favours compounds with a hit. Of some 79,000 tested, about 15% had one in any assay.

Compound: c1ccc(CCN2CCc3ccccc3C2)cc1
growth inhibition, %: -3

Compound: CN(C)CCNc1ccc2ncnc3c2c1C(=O)c1ccccc1-3
growth inhibition, %: 90

Compound: COc1ccc(C/C=N/Nc2ccc([N+](=O)[O-])cc2)cc1OC
growth inhibition, %: 29

Compound: COc1cc(O)c2c(c1O)C(=O)c1cc(C)ncc1C2=O
growth inhibition, %: 20

Compound: CCOC(=N)c1ccc(O)c(OC)c1
growth inhibition, %: -4

Compound: CC(C)OC(=O)Nc1ccc2nc(-c3cscn3)[nH]c2c1
growth inhibition, %: 16

Compound: CCN(CC)Cc1cc(Nc2c3ccccc3nc3c2[nH]c2ccccc23)cc(CN(CC)CC)c1O
growth inhibition, %: 1

Compound: CN(C)CCNC(=O)c1cccc2cc([N+](=O)[O-])ccc12
growth inhibition, %: 21

Compound: COc1ccc2c(c1)n([O-])c1ccccc1[n+]2=O
growth inhibition, %: 72

Compound: O=c1nc2n(Cc3ccccc3)c3ccccc3nc-2c(=O)[nH]1
growth inhibition, %: 30

Compound: Cc1cccc(C(C)(C)C)c1NC(=O)C(C#N)C1=C(Cl)C(=O)c2ccccc2C1=O (stereo not drawn)
growth inhibition, %: 67

Compound: O=c1[nH]c2ccc(Cl)cc2o1
growth inhibition, %: -42

Compound: O=C1OC(C2=CC(=O)c3ccccc3C2=O)C(Cl)=C1Cl (stereo not drawn)
growth inhibition, %: 13

Compound: OCC(CO)C(c1cccc2ccccc12)c1cccc2ccccc12
growth inhibition, %: 3

Compound: N=C1N=Nc2nc(C3(c4nc5n(c4O)C(=N)N=N5)Cc4ccccc4C3=O)c(O)n21 (stereo not drawn)
growth inhibition, %: 0

Compound: O=[N+]([O-])c1cc(S(=O)(=O)Nc2ccccc2)ccc1Nc1ccccc1
growth inhibition, %: 2

Compound: COc1cc([C@@H]2c3cc4c(cc3[C@@H](Nc3ccc(NC(=O)c5cc([N+](=O)[O-])cn5C)cc3)[C@H]3COC(=O)[C@H]23)OCO4)cc(OC)c1O
growth inhibition, %: 10

Compound: CC(=O)OCC1OC2OC(=O)NC2C(OC(C)=O)C1OC(C)=O (stereo not drawn)
growth inhibition, %: 0

Compound: COC(=O)Oc1cc(Cl)c(Cl)cc1Cl
growth inhibition, %: 0

Compound: Cc1c(-c2ccccn2)ccc2ccccc12
growth inhibition, %: 0

Compound: Oc1[nH]c2ccccc2c1N=NC(=S)N1CCCCC1
growth inhibition, %: 16

Compound: CCC(C)NC1=NCC(C)S1 (stereo not drawn)
growth inhibition, %: -38

Compound: CC12C(=O)OC(=O)C(c3ccccc31)c1ccccc12
growth inhibition, %: -25

The reported measurements were obtained from PubChem BioAssay (NCI).
